Provenance of the data: patent US10392368B2

Molecular target: JAK3 (Homo sapiens, UniProt P52333)
Sequence (P52333 1-1124): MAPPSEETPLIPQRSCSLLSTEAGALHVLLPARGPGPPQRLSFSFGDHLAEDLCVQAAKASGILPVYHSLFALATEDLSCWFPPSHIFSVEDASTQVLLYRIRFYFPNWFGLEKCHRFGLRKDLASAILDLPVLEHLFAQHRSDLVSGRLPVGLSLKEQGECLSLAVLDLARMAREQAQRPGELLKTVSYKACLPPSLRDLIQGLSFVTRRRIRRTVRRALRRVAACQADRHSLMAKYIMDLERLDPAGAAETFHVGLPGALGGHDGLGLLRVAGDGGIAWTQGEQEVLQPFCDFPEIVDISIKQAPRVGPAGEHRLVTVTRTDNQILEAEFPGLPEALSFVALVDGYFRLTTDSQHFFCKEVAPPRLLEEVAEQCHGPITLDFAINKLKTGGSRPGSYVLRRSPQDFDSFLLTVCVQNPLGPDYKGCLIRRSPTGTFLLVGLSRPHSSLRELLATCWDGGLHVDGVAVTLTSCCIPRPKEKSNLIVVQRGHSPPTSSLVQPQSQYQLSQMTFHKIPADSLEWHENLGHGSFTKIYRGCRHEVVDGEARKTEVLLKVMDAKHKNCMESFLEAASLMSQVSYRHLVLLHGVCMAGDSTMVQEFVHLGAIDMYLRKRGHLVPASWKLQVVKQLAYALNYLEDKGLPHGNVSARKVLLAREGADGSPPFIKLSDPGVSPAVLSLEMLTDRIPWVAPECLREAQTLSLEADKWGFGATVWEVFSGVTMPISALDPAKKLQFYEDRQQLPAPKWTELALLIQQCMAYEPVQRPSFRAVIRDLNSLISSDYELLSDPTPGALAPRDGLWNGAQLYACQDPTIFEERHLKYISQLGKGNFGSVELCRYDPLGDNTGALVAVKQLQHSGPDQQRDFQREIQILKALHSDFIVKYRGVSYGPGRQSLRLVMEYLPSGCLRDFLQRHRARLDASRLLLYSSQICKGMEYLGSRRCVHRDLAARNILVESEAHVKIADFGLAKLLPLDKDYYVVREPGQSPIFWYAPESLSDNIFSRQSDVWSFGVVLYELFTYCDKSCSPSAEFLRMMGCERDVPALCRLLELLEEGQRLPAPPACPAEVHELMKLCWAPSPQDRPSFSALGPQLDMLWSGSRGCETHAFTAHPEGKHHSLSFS
Assay: Biochemical JAK3 kinase assay (LanthaScreen)
Design: GST; purchased Life Technologies
Conditions: selectivity JAK3 over JAK1, difference of pKi
Procedure: A panel of four LanthaScreen JAK biochemical assays (JAK1, 2, 3 and Tyk2) were carried in a common kinase reaction buffer (50 mM HEPES, pH 7.5, 0.01% Brij-35, 10 mM MgCl2, and 1 mM EGTA). […] Serially or discretely diluted compounds were pre-incubated with each of the four JAK enzymes and the substrate in white 384-well microplates (Corning) at ambient temperature for 1 h. […] The plates were allowed to incubate at ambient temperature for 1 h before being read on the EnVision reader (Perkin Elmer). […]

{"compound": "Cc1n[nH]c2cc(-c3ccc(O)c(Cl)c3)cc(OCC3CN(C(=O)/C=C/CN(C)C)C3)c12", "JAK3 (pKi)-JAK1 (pKi)": "B (a value of 2.3 to 3)"}
{"compound": "Cc1n[nH]c2cc(-c3ccc(O)cc3)cc(OCC3CN(C(=O)/C=C/CN(C)C)C3)c12", "JAK3 (pKi)-JAK1 (pKi)": "B (a value of 2.3 to 3)"}
{"compound": "C=CC(=O)N1CCC(Oc2cc(-c3ccc(O)cc3)cc3[nH]ncc23)C(F)(F)C1 (stereo not shown)", "JAK3 (pKi)-JAK1 (pKi)": "B (a value of 2.3 to 3)"}

---

biological target: JAK2 (Homo sapiens); construct: GST; purchased Life Technologies; test: Biochemical JAK2 kinase assay (LanthaScreen); conditions: read-out: JAK 2 (pKi) (converted)
Sequence (O60674 whole entry): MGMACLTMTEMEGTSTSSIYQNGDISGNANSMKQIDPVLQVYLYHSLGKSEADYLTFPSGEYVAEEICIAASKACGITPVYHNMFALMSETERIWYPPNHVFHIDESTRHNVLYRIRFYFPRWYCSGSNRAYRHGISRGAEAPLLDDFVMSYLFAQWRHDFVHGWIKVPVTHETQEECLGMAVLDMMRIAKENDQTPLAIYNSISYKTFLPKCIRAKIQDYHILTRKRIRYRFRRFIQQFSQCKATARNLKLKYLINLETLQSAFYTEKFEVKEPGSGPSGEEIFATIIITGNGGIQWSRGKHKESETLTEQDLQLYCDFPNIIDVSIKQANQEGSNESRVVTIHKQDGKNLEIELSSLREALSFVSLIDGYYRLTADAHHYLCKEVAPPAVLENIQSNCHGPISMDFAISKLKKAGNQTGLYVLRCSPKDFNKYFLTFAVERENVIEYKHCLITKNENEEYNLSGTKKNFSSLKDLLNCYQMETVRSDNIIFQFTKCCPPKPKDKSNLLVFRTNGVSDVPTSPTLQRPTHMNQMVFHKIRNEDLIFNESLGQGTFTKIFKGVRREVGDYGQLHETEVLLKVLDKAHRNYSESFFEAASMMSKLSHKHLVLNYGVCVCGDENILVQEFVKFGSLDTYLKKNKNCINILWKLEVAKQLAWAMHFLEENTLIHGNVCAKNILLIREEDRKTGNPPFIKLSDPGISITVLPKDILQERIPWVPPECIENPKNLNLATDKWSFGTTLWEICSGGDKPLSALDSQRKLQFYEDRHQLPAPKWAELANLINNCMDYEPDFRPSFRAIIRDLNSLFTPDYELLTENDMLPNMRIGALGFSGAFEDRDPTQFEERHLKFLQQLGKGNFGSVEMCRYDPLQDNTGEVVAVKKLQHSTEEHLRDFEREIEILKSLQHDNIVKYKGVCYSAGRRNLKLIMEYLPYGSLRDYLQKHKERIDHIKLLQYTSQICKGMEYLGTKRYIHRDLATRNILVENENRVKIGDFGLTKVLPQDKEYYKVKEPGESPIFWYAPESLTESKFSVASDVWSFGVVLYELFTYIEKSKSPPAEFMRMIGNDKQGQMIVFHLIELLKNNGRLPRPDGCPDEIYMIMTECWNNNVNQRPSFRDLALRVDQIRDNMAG
readout_type: Ki

{"item_smiles": "C=CC(=O)N1CC[C@H](Oc2nc(-c3ccc(O)cc3)cc3[nH]ncc23)C1", "measured": "> 100 nM"}
{"item_smiles": "C=CC(=O)N1CC(C)(C(=O)Nc2cc(-c3ccc(O)cc3)cc3[nH]ncc23)C1", "measured": "> 100 nM"}
{"item_smiles": "C=CC(=O)N1CC(C#N)(COc2nc(-c3ccc(O)cc3)nc3[nH]ncc23)C1", "measured": "> 100 nM"}
{"item_smiles": "C=CC(=O)N1CC(F)(COc2cc(-c3ccc(O)cc3)nc3[nH]ncc23)C1", "measured": "> 100 nM"}
{"item_smiles": "C=CC(=O)N1CC(COc2cc(-c3ccc(O)cc3)nc3[nH]ncc23)C1", "measured": "> 100 nM"}
{"item_smiles": "COC1(COc2cc(-c3ccc(O)cc3)cc3[nH]ncc23)CN(C(=O)/C=C/CN(C)C)C1", "measured": "> 100 nM"}
{"item_smiles": "C=CC(=O)N1CC[C@@H](Nc2cc(-c3ccc(O)cc3)cc3[nH]ncc23)[C@H](C)C1", "measured": "1 to 10 nM"}
{"item_smiles": "CN(C)C/C=C/C(=O)N1CC(F)(COc2nc(-c3ccc(O)c(Cl)c3)nc3[nH]ncc23)C1", "measured": "> 100 nM"}
{"item_smiles": "C=C(CN(C)C)C(=O)N1CC(COc2cc(-c3ccc(O)cc3)nc3[nH]ncc23)C1", "measured": "> 100 nM"}
{"item_smiles": "C=CC(=O)N1CC[C@H](Oc2cc(-c3ccc(O)c(Cl)c3)cc3[nH]ncc23)C1", "measured": "> 100 nM"}
{"item_smiles": "C=CC(=O)N1CC(F)(COc2nc(-c3ccc(O)c(Cl)c3)cc3[nH]ncc23)C1", "measured": "10 to 100 nM"}
{"item_smiles": "C=CC(=O)N1CC[C@H](Oc2cc(-c3ccc(O)c(F)c3)cc3[nH]ncc23)C1", "measured": "10 to 100 nM"}
{"item_smiles": "C=CC(=O)N1CC(C(C)(C)Oc2cc(-c3ccc(O)cc3)nc3[nH]ncc23)C1", "measured": "> 100 nM"}
{"item_smiles": "CN(C)C/C=C/C(=O)N1CC(S(=O)(=O)c2cc(-c3ccc(O)cc3)cc3[nH]ncc23)C1", "measured": "> 100 nM"}
{"item_smiles": "CC(C)CN(C)C/C=C/C(=O)N1CC(COc2cc(-c3ccc(O)cc3)cc3[nH]ncc23)C1", "measured": "> 100 nM"}
{"item_smiles": "CN(C)C/C=C/C(=O)N1CC(C)(COc2cc(-c3ccc(O)cc3)cc3[nH]ncc23)C1", "measured": "10 to 100 nM"}

---

Item-by-item account of Ki
target: JAK2 (Homo sapiens); construct: GST; purchased Life Technologies; assay: Biochemical JAK2 kinase assay (LanthaScreen); details: read-out: JAK 2 (pKi) (converted)
readout_type: Ki

{"compound": "COC1CCCN(C/C=C/C(=O)N2CC(COc3cc(-c4ccc(O)cc4)cc4[nH]ncc34)C2)C1 (stereo not shown)", "measured": "0.0001 to 0.001 µM"}
{"compound": "CN(C)C/C=C/C(=O)N1CC(F)(COc2cc(-c3ccc(O)c(Cl)c3)cc3[nH]ncc23)C1", "measured": "0.01 to 0.1 µM"}
{"compound": "C=CC(=O)N1CC[C@H](Oc2nc(-c3ccc(O)c(F)c3)cc3[nH]ncc23)C1", "measured": "0.01 to 0.1 µM"}
{"compound": "C=CC(=O)N1CC(C(C)Oc2nc(-c3ccc(O)cc3)nc3[nH]ncc23)C1 (stereo not shown)", "measured": "> 0.1 µM"}
{"compound": "C=CC(=O)N1CC(COc2cc(-c3ccc(O)c(Cl)c3)nc3[nH]ncc23)C1", "measured": "> 0.1 µM"}
{"compound": "CN(C)C/C=C/C(=O)N1CC[C@H](Oc2cc(-c3ccc(O)cc3)cc3[nH]ncc23)C1", "measured": "0.01 to 0.1 µM"}
{"compound": "C=CC(=O)N1CCC(Cc2cc(-c3ccc(O)cc3)cc3[nH]ncc23)CC1", "measured": "> 0.1 µM"}

---

molecular target: UniProt:P52333; test: Biochemical JAK3 kinase assay (LanthaScreen); design: GST; purchased Life Technologies; conditions: read-out: JAK 3 (pKi) (converted)

{"compound": "C=CC(=O)N1CC[C@H]1C(=O)Nc1cc(-c2ccc(O)cc2)cc2[nH]ncc12", "Ki": "< 0.1 nM"}
{"compound": "CSC1CCN(C/C=C/C(=O)N2CC(COc3cc(-c4ccc(O)cc4)cc4[nH]ncc34)C2)C1 (stereo not shown)", "Ki": "0.1 to 1 nM"}
{"compound": "C=CC(=O)N1CCC[C@H](S(=O)(=O)c2cc(-c3ccc(O)cc3)cc3[nH]ncc23)C1", "Ki": "0.1 to 1 nM"}
{"compound": "C=CC(=O)N1CC(COc2cc(-c3ccc(O)c(F)c3)cc3[nH]ncc23)C1", "Ki": "0.1 to 1 nM"}
